tested on: UACC-62; assay: in vitro inhibition of melanoma (UACC-62) cancer cell line; format: functional; details: Homo sapiens
Lab note: compare GI50 with 1000 nM, writing Y if less and N if equal or more.

Examples from the recorded data:
CC(=O)c1cc2c(s1)C(=O)c1sccc1C2=O = Y
CC(=O)OC(C)c1cc2c(s1)C(=O)c1scc(C(C)OC(C)=O)c1C2=O (stereo unspecified) = Y
CC(=O)OC(C)c1cc2c(s1)C(=O)c1c(C(C)OC(C)=O)csc1C2=O (stereo unspecified) = N
CC(O)c1cc2c(s1)C(=O)c1sccc1C2=O (stereo unspecified) = Y
CC(=O)c1cc2c(s1)C(=O)c1c(C(C)=O)csc1C2=O = N

// switching to the query compound
Is GI50 of CC(=O)OC(C)c1cc2c(s1)C(=O)c1sccc1C2=O (stereo unspecified) strictly below 1000 nM?
N

* * *

test system: OVCAR-3; assay: in vitro inhibition of ovarian (OVCAR-3) cancer cell line; type: functional; conditions: Homo sapiens
assay endpoint: GI50 (µM)
State just the number; it will be interpreted in µM.

A selection of reference data follows.
CC(O)c1cc2c(s1)C(=O)c1ccsc1C2=O (configuration not stated) = 0.024
CC(=O)OC(C)c1cc2c(s1)C(=O)c1sccc1C2=O (configuration not stated) = 0.49
CC(=O)c1cc2c(s1)C(=O)c1c(C(C)=O)csc1C2=O = 0.23
CC(=O)OC(C)c1cc2c(s1)C(=O)c1scc(C(C)OC(C)=O)c1C2=O (configuration not stated) = 0.27
CC(=O)c1cc2c(s1)C(=O)c1ccsc1C2=O = 0.16

Hi! What's the reported GI50 for CC(O)c1cc2c(s1)C(=O)c1c(C(C)O)csc1C2=O (configuration not stated) on OVCAR-3?
0.012

Can you look up GI50 on OVCAR-3 for CC(O)c1cc2c(s1)C(=O)c1sccc1C2=O (configuration not stated) ?
0.12

Please state recorded GI50 (tested on OVCAR-3) of CC(=O)OC(C)c1cc2c(s1)C(=O)c1c(C(C)OC(C)=O)csc1C2=O (configuration not stated)
0.28

Lookup: GI50 / OVCAR-3 / CC(=O)c1cc2c(s1)C(=O)c1scc(C(C)=O)c1C2=O
0.03

Reported GI50 for OVCAR-3, given CC(O)c1cc2c(s1)C(=O)c1scc(C(C)O)c1C2=O (configuration not stated) ?
0.36

* * *

system: LOX IMVI; assay: in vitro inhibition of melanoma(LOX IMVI) cancer cell line; format: functional; settings: Homo sapiens
Measured GI50 by item

CC(O)c1cc2c(s1)C(=O)c1ccsc1C2=O (configuration not stated) = 10 nM
CC(=O)c1cc2c(s1)C(=O)c1scc(C(C)=O)c1C2=O = 22 nM
CC(=O)c1cc2c(s1)C(=O)c1ccsc1C2=O = 25 nM
CC(=O)OC(C)c1cc2c(s1)C(=O)c1sccc1C2=O (configuration not stated) = 210 nM
CC(=O)OC(C)c1cc2c(s1)C(=O)c1ccsc1C2=O (configuration not stated) = < 10 nM
CC(=O)c1cc2c(s1)C(=O)c1c(C(C)=O)csc1C2=O = 1100 nM
CC(O)c1cc2c(s1)C(=O)c1c(C(C)O)csc1C2=O (configuration not stated) = 55 nM
CC(O)c1cc2c(s1)C(=O)c1sccc1C2=O (configuration not stated) = 24 nM
CC(=O)OC(C)c1cc2c(s1)C(=O)c1c(C(C)OC(C)=O)csc1C2=O (configuration not stated) = 1600 nM
CC(=O)OC(C)c1cc2c(s1)C(=O)c1scc(C(C)OC(C)=O)c1C2=O (configuration not stated) = 120 nM

Using the record for CC(=O)c1cc2c(s1)C(=O)c1sccc1C2=O , report its GI50.
< 10 nM

What value of measured GI50 is listed for CC(O)c1cc2c(s1)C(=O)c1scc(C(C)O)c1C2=O (configuration not stated) ?
120 nM

The reported measurements were obtained from ChEMBL document CHEMBL1131509.
